Molecular target: TRKA (Homo sapiens, UniProt P04629)
Construct: purchased life technologies PV3144
Sequence (P04629 440-796 limits assumed): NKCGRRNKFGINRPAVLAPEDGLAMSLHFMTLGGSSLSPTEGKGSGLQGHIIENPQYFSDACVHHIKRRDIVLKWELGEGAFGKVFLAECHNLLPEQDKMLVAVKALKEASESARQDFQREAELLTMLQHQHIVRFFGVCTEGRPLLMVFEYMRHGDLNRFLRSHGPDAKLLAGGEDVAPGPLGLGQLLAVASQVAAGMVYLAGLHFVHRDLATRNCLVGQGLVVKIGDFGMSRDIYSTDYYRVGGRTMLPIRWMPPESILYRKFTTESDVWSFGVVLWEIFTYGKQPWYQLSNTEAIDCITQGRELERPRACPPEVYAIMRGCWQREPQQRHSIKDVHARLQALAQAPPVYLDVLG
Assay: Z′-LYTE kinase activity assay, TRKA
Assay type: biochemical
Conditions: ATP 400 uM
pIC50: −log10 of the molar value.
The label depends only on pIC50: YES if it is at least 7, NO if it is smaller.

Q: Can Fc1ccc(Cc2ccc3[nH]nc(/C=C/c4ccccn4)c3c2)c(F)c1 [DYX-060] be said to have pIC50 at or above 7?
Result: NO

Q: Can O=S(=O)(c1cc(F)cc(F)c1)c1ccc2[nH]nc(/C=C/c3ccccn3)c2n1 [DYX-150] be said to have pIC50 at or above 7?
Result: YES

Q: Can FC(F)(F)c1cccc(Cc2ccc3[nH]nc(/C=C/c4ccccn4)c3c2)c1 [DYX-138X] be said to have pIC50 at or above 7?
Result: NO

Q: Can Fc1ccc(F)c(CNc2ccc3[nH]nc(/C=C/c4ccccn4)c3c2)c1 [DYX-216A] be said to have pIC50 at or above 7?
Result: YES
